Data origin: patent US9688764B2

# STUDY TARGET: T1, PRLR-expressing cells (T47D) (Homo sapiens, UniProt P16471)
# T1 construct: a native PRLR expressing cell line (T47D); endogenous in cells; host or cells: T47D
# T1 sequence (P16471 25-622): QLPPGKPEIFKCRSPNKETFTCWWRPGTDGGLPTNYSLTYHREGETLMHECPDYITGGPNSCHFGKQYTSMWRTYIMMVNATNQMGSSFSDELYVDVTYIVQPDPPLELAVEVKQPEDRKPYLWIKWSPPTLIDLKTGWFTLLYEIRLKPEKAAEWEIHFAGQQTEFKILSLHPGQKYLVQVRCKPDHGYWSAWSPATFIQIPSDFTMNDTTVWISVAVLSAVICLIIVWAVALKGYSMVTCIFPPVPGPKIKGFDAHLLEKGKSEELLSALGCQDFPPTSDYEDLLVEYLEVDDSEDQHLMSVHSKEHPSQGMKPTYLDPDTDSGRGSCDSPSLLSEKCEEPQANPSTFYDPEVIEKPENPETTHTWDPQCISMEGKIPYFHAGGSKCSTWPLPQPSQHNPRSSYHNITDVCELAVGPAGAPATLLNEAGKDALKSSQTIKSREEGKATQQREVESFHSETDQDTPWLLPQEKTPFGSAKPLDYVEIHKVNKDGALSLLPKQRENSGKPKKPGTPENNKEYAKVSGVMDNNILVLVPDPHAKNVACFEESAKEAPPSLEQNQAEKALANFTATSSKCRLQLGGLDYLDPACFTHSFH
# ASSAY OVERVIEW: Antibody binding and internalization by PRLR-expressing cells (imaging)
# Type: cell-based
# CONDITION INFO: [mAb] (0.67 nM), whole cell alexa488 intensity at 37° C.
PROPERTY: % Total Binding relative to Control I (%)
# number only, unit % dropped from output

[
  {
    "MOLECULE": "H1H6975N: human IgG1 Fc form of H2M6975N; anti-PRLR; HCVR/LCVR SEQ ID NOs 370/378 (antibody, V domains shown, human IgG1 Fc) VH: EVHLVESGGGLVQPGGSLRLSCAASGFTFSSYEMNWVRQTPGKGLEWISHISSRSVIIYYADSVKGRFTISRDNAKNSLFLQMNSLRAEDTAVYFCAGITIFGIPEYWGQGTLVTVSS VL: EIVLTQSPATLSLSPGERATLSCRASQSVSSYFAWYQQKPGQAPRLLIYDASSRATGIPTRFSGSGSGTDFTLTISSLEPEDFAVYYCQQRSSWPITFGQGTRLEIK",
    "% Total Binding relative to Control I [%]": 225.9
  },
  {
    "MOLECULE": "H1H6959N2: human IgG1 Fc form of H2M6959N2; anti-PRLR; HCVR/LCVR SEQ ID NOs 306/314 (antibody, V domains shown, human IgG1 Fc) VH: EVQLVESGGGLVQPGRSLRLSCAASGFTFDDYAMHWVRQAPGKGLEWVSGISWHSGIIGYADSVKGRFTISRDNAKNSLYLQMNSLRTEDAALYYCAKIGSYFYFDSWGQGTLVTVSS VL: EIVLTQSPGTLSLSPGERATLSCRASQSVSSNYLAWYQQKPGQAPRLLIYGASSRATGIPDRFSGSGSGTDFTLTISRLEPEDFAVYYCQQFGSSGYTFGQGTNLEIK",
    "% Total Binding relative to Control I [%]": 2.0
  },
  {
    "MOLECULE": "H1H6966N: human IgG1 Fc form of H2M6966N; anti-PRLR; HCVR/LCVR SEQ ID NOs 338/346 (antibody, V domains shown, human IgG1 Fc) VH: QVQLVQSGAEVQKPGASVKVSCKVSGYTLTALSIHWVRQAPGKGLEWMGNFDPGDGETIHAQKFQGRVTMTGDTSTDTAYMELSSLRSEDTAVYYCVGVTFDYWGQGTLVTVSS VL: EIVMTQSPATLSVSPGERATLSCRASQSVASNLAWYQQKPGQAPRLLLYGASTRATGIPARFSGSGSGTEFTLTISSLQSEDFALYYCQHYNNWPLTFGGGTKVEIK",
    "% Total Binding relative to Control I [%]": 111.3
  }
]

Recorded % Total Binding relative to Control I for H1H6801P: anti-PRLR antibody, human IgG1 Fc; HCVR/LCVR SEQ ID NOs 210/218 (antibody, V domains shown, human IgG1 Fc) VH: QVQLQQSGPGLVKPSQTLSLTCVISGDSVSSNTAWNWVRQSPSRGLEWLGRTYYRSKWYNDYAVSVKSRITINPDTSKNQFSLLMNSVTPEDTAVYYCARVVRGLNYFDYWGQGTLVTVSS VL: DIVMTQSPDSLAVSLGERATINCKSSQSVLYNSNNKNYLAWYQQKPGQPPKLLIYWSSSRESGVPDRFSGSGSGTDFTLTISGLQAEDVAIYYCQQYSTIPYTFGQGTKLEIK , please? 155.7
